Values from ChEMBL document CHEMBL1143502

- ASSAY NAME: The in vitro binding constant in presence of K+ was reported
- Type: functional
pKd: −log10 of the molar value.
EXPERIMENTAL READOUT: pKd

COCCN1CCOCCOCCOCCOc2cc(-c3c4cc(F)c(=O)cc-4oc4cc(O)c(F)cc34)ccc21 0.57

A. COC(=O)CN1CCOCCOCCOCCOc2cc(-c3c4cc(F)c(=O)cc-4oc4cc(O)c(F)cc34)ccc21
B. COC(=O)CN1CCOCCOCCOCCOc2cc(C3=C4C(C)=CC(C)=[N+]4[B-](F)(F)n4c(C)cc(C)c43)ccc21
C. COC(=O)CN1CCOCCOCCOCCOCCOc2cc(-c3c4cc(F)c(=O)cc-4oc4cc(O)c(F)cc34)ccc21
With regard to pKd, arrange the entries in ascending order, please. I'd appreciate it if you listed the labels in the requested order. A, B, C
